Test: Hydrolysis in skin: thin-layer chromatography of radiolabel extracted from tape strips
Assay type: in vitro ADME, pig
Settings: pig, ear skin, topical or ocular, Tapes 7-9; after six hours; spot of the applied compound itself; mean of three repeats; read-out: % of total label, peak 2
Protocol: In a similar experiment nine tape strips were taken after six hours. The first three strips were incubated in 3ml of phosphate buffer. The next three strips and the final three strips were likewise incubated. After 30 minutes the buffer solutions were spotted onto a thin-layer chromatography plate (bearing silica gel as the stationary phase). The plate was eluted with 80:20:2 hexane:ether:acetic acid mixture. The spots on the plate were detected and quantified by their emitted radiation. […]
valueType: remaining at 6 h (%)
Reply with just the number (in %).

Input line: State its remaining at 6 h: CCCCCCCCCCCC(=O)OC(C)C(=O)O (stereo not shown) [Lauroyl lactylate, Sodium lauroyl lactylate]
Output line: 54.8

----------
test: Hydrolysis in skin: thin-layer chromatography of radiolabel extracted from tape strips; assay type: in vitro ADME, pig; conditions: pig, ear skin, topical or ocular, Tapes 1-3; after six hours; spot of hydrolysis products; mean of three repeats; read-out: % of total label, peak 1
valueType: metabolised at 6 h (%)
Reply with just the number (in %).

Input line: State its metabolised at 6 h: CCCCCCCCCCCC(=O)OC(C)C(=O)O (stereo not shown) [Lauroyl lactylate, Sodium lauroyl lactylate]
Output line: 13.1

meta.source: patent EP0793481B1
